# Ki per record follows
- SYSTEM UNDER TEST: Sushi domains (SD1/2) protein of GABAB1a (GB1a)
- Sequence (Q9Z0U4 29-158): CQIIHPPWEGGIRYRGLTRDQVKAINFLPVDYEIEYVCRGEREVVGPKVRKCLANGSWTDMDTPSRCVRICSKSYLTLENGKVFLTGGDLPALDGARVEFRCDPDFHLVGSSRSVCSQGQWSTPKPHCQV
- ASSAY DETAILS: FP competition vs TAMRA AJAP-1probe
Non-standard residues stand in square brackets, D forms with d. Sar = CNCC(=O)O
Please state the figure in nM; there is no need to write the unit.

Would you please look over these solved cases?
Ac-ETDFIAWGPTGDED-NH2 […] | 26
Ac-EDDSDVWWY[Sar]ADTD-NH2 (SMILES CC(=O)N[C@@H](CCC(=O)O)C(=O)N[C@@H](CC(=O)O)C(=O)N[C@@H](CC(=O)O)C(=O)N[C@@H](CO)C(=O)N[C@@H](CC(=O)O)C(=O)N[C@H](C(=O)N[C@@H](Cc1c[nH]c2ccccc12)C(=O)N[C@@H](Cc1c[nH]c2ccccc12)C(=O)N[C@@H](Cc1ccc(O)cc1)C(=O)N(C)CC(=O)N[C@@H](C)C(=O)N[C@@H](CC(=O)O)C(=O)N[C@H](C(=O)N[C@@H](CC(=O)O)C(N)=O)[C@@H](C)O)C(C)C) | 201

Next, consider the following binder.
If you can, please state the reported Ki value of Ac-EDDSDVWWYG[Sar]ADTD-NH2 (SMILES CC(=O)N[C@@H](CCC(=O)O)C(=O)N[C@@H](CC(=O)O)C(=O)N[C@@H](CC(=O)O)C(=O)N[C@@H](CO)C(=O)N[C@@H](CC(=O)O)C(=O)N[C@H](C(=O)N[C@@H](Cc1c[nH]c2ccccc12)C(=O)N[C@@H](Cc1c[nH]c2ccccc12)C(=O)N[C@@H](Cc1ccc(O)cc1)C(=O)NCC(=O)N(C)CC(=O)N[C@@H](C)C(=O)N[C@@H](CC(=O)O)C(=O)N[C@H](C(=O)N[C@@H](CC(=O)O)C(N)=O)[C@@H](C)O)C(C)C) .
164

This collection of values is drawn from patent US20260193293A1.
